assay_procedure: Tmax in common marmoset at 40 mg/kg, po BID measured on day 7 by […] analysis
Assay type: ADME, organism-based, Callithrix jacchus
Design: dose 40 mg/kg, route oral
run_parameters: in vivo
endpoint: Tmax (min)
One number for each entry, in min.

Form: molecule = C[C@H]1COc2c(N3CCN(C)CC3)c(F)cc3c(=O)c(C(=O)O)cn1c23.C[C@H]1COc2c(N3CCN(C)CC3)c(F)cc3c(=O)c(C(=O)O)cn1c23.O [LEVOFLOXACIN] ; Tmax = 30

====

Test system: Rhesus monkey
assay_procedure: AUC (0 to infinity) in Rhesus monkey at 15 mg/kg followed by 4 mg/kg in 12 hrs dosing interval by […] analysis
Type: ADME, organism-based, Macaca mulatta, Plasma
Parameters: dose 15 mg/kg, time infinity
run_parameters: in vivo
endpoint: AUC (µg·h/mL)
Numbers only, in µg·h/mL.

Per the reported Rhesus monkey data, C[C@H]1COc2c(N3CCN(C)CC3)c(F)cc3c(=O)c(C(=O)O)cn1c23.C[C@H]1COc2c(N3CCN(C)CC3)c(F)cc3c(=O)c(C(=O)O)cn1c23.O has AUC of 33.4
